tested on: NOMO1; assay: cell viability relative to DMSO control; higher = less cytotoxic; settings: HPLM + 10% dialyzed FBS; 48 h; 0.0632 µM

>  <line_notation>
C[S+](=O)([O-])c1ccc(Oc2cc(F)cc(C#N)c2)c2c1[C@H](O)C(F)(F)C2

>  <cell viability / %>
119

$$$$
>  <line_notation>
OC1=CC2=C(C(=C1)O)C(=O)\C(=C(/O2)C3=CC(=C(O)C=C3)O)O

>  <cell viability / %>
125

$$$$
>  <line_notation>
CCOC(=O)Nc1ccc(NCc2ccc(F)cc2)nc1N

>  <cell viability / %>
117

$$$$
>  <line_notation>
O=C1NC(=O)/C(=C/c2ccc(-c3ccc(F)cc3O)o2)S1

>  <cell viability / %>
127

$$$$
>  <line_notation>
Cc1onc(-c2ccccc2)c1C(=O)N[C@@H]1C(=O)N2[C@@H]1SC(C)(C)[C@@H]2C(=O)[O-].[Na+]

>  <cell viability / %>
134

$$$$
>  <line_notation>
CON(C)C(=O)N1/N=C(S[C@@]1(CCCN)C2=CC=CC=C2)/C3=CC(=CC=C3F)F

>  <cell viability / %>
34.4

$$$$
>  <line_notation>
CC(C)[C@H](N)C(=O)OCCOC[N]1C=NC2=C1\N=C(N)/NC2=O

>  <cell viability / %>
135

$$$$
>  <line_notation>
Nc1nc(Cl)nc2c1ncn2[C@@H]1O[C@H](CO)[C@@H](O)[C@@H]1F

>  <cell viability / %>
26.6

$$$$
>  <line_notation>
C[C@]12CC[C@H]3[C@@H](CCC/4=C/C(=O)CC[C@]34C)[C@@H]1CC[C@@H]2OC(=O)CCC5CCCC5

>  <cell viability / %>
96.1

$$$$

----------
Item-by-item account of cell viability
system: P12-Ichikawa; assay: cell viability relative to DMSO control; higher = less cytotoxic; settings: RPMI 5 mM glucose + 10% dialyzed FBS; 48 h; 0.0211 µM

>  <molecule>
CCCC1OC2C[C@H]3[C@@H]4CCC5=CC(=O)C=C[C@]5(C)[C@H]4C(O)C[C@]3(C)[C@]2(C(=O)CO)O1 (stereo partly specified)

>  <uom>
%

>  <cell viability>
76.7

$$$$
>  <molecule>
C[C@H]1O[C@H](C[C@H](O)[C@@H]1O)O[C@H]2[C@@H](O)C[C@@H](O[C@@H]2C)O[C@H]3[C@@H](O)C[C@@H](O[C@@H]3C)O[C@H]4CC[C@@]5(C)[C@H](CC[C@@H]6[C@@H]5C[C@@H](O)[C@]7(C)[C@H](CC[C@]67O)C/8=C/C(=O)OC8)C4

>  <uom>
%

>  <cell viability>
110

$$$$
>  <molecule>
O=C(Nc1cccnn1)N1CCC(=Cc2cccc(Oc3ccc(C(F)(F)F)cn3)c2)CC1

>  <uom>
%

>  <cell viability>
47.1

$$$$
>  <molecule>
COc1ncc(-c2ccc3c(Nc4cc(Oc5cc(F)cc(F)c5)cc(C(=O)O)c4)c([S+](=O)([O-])NC4CC4)cnc3c2)c(OC)n1

>  <uom>
%

>  <cell viability>
89.4

$$$$
>  <molecule>
COc1ccc2cc1Oc1ccc(cc1)C[C@H]1c3cc(c(OC)cc3CCN1C)Oc1c(OC)c(OC)cc3c1[C@H](C2)N(C)CC3

>  <uom>
%

>  <cell viability>
106

$$$$
>  <molecule>
O.O.CCN1CCN(C(=O)N[C@H](C(=O)N[C@H]2[C@@H]3SC\C(=C(/N3C2=O)C(O)=O)CSC4=NN=N[N]4C)C5=CC=C(O)C=C5)C(=O)C1=O

>  <uom>
%

>  <cell viability>
22.6

$$$$
